# IC50 against IRAK4 (Homo sapiens (Human), UniProt Q9NWZ3), merged from multiple literature sources
reportedMetric: IC50

Cn1cc(-c2cccc(-c3ncc(-c4cnn(C)c4)c(NC4CC5CC4N(S(C)(=O)=O)C5)n3)c2)cn1 (centres unmarked)
> 5 µM
CCc1ccc2ncnc(N[C@H]3CC[C@H](N4CCC5(CC4)CC5)CC3)c2c1
≤ 5 µM
CN(C)[C@H]1CC[C@H](Oc2ncnc3sc4c(c23)CN(S(N)(=O)=O)CC4)CC1
< 5 µM
COc1ccc2cc1CCn1c(nc3ccccc31)NC(=O)c1cccc(c1)Cn1nc-2ccc1=O
< 0.1 µM
Cn1cc(-c2cccc(-c3ncc(-c4ccn(C)n4)c(NCC4CCNCC4)n3)c2)cn1
> 5 µM
Cn1cc(-c2cccc(C(=O)Nc3nc(CCCCCCN4CCCC4=O)cn3-c3ccccc3)c2)cn1
< 0.05 µM
COc1ccccc1-n1ccc2nc(Nc3cc(C)ns3)nc(OC3CCOCC3)c21
1 to 10 µM
Cc1cccc(-n2ncc3ccc(-c4cccc5c4CCNC5=O)cc32)n1
> 10 µM
O=C(O)c1ccc2c(c1)nc1n2Cc2cccc(c2)-c2ccc(=O)n(n2)Cc2cccc(c2)C(=O)N1
< 0.1 µM
O=C(Nc1nc(CCCN2CCSCC2)cn1-c1ccccc1)c1cccc(-c2cn[nH]c2)c1
< 0.05 µM
Cn1cc(-c2cccc(-c3ncc(-c4cnn(C)c4)c(OCC4(C)COC4)n3)c2)cn1
0.1 to 1 µM
CN(C)[C@]1(C)CC[C@@H](Oc2ncnc3sc4c(c23)[C@@H](CC(N)=O)CC4)CC1
< 5 µM
Cn1cc(-c2cccc(-c3ncc(-c4cnn(C)c4)c(NC4CCCCC4O)n3)c2)cn1 (centres unmarked)
< 0.1 µM
Cn1cc(-c2cccc(-c3ncc(-c4ccn(C)n4)c(NC4CCC(=O)NC4)n3)c2)cn1 (centres unmarked)
0.1 to 1 µM
O=C(Nc1nc(CCCCCCN2CCOCC2)cn1-c1ccccc1)c1cccc(-c2cn[nH]c2)c1
< 0.05 µM
CCC(N)c1cccc(-c2ccc3cnn(-c4cccc(CO)n4)c3c2)n1 (centres unmarked)
< 0.1 µM
CC(N)c1cccc(-c2cc(C(=O)N(C)C)c3cnn(-c4cccc(C(F)(F)F)n4)c3c2)n1 (centres unmarked)
0.1 to 1 µM

---

pIC50: −log10 of the molar value.
For reference, the following pIC50 results for IRAK4 (Homo sapiens (Human)) were taken from various sources.
reportedMetric: pIC50

N[C@H](c1cccc(-c2ccc3cnn(-c4cccc(CF)n4)c3c2)n1)[C@H]1C[C@@H](O)C1
≥ 7.00
C[C@@H](O)C[C@H]1CCc2sc3ncnc(O[C@H]4CC[C@H](N(C)C)CC4)c3c21
> 5.30
CC(C)NC(=O)c1csc(Nc2nc(O[C@H]3CCOC3)c3c(ccn3-c3cnn(C)c3)n2)c1
≥ 7.00
Cn1cc(-n2ccc3nc(Nc4cc(C(=O)N5CCS(=O)(=O)CC5)cs4)nc(O[C@H]4CCOC4)c32)cn1
≥ 7.00
Cn1cc(-c2cccc(-c3ncc(-c4cnn(C)c4)c(NC4CC5(CCN(S(C)(=O)=O)C5)C4)n3)c2)cn1 (stereo not drawn)
> 7.00
Cn1cc(-c2cccc(C(=O)Nc3nc(CCCC(=O)NCC(C)(C)O)cn3-c3ccccc3)c2)cn1
> 7.30
O=C(Nc1nc(CCC(=O)N2CCOCC2)cn1-c1ccccc1)c1cccc(-c2cn[nH]c2)c1
> 7.30
CC(N)c1cccc(-c2ccc3cnn(-c4cccc(C(C)O)n4)c3c2)n1 (stereo not drawn)
> 7.00
Cc1cc(Nc2nc(N[C@H]3CC[C@H](O)CC3)c3c(ccn3-c3ccccc3)n2)sn1
6.00 to 7.00
COc1cc(Nc2ncc(-c3nc4cnccc4s3)c(N[C@@H]3C[C@H](CO)[C@@H](O)[C@H]3O)n2)ccn1
8.15
CC(=O)c1cccc(-c2cc(F)c3cnn(-c4cccc(C(F)(F)F)n4)c3c2)n1
5.00 to 6.00
CN(CC(=O)N1CCCC1)[C@H]1CC[C@H](Nc2ncnc3ccc(C#N)cc23)CC1
≥ 5.30
Cc1nnc(-c2cnc(-c3cccc(-c4cnn(C)c4)c3)nc2NC2CCC(F)(F)CC2)s1
> 7.00
CCC(O)C[C@@H]1CCc2sc3ncnc(O[C@H]4CC[C@H](N5CCOCC5)CC4)c3c2C1 (stereo partly drawn)
> 5.30
CN(C)CCNC(=O)CCCc1cn(-c2ccccc2)c(NC(=O)c2cccc(-c3cnn(C)c3)c2)n1
7.00 to 7.30
COc1cc2nn(C3CCN(S(=O)(=O)NC(C)=O)CC3)cc2cc1NC(=O)c1cccc(C(F)(F)F)n1
8.10
Cn1cc(-c2cccc(-c3ncc(-c4ccn(C)n4)c(OCC4CCCCO4)n3)c2)cn1 (stereo not drawn)
5.30 to 6.00
CC(C)Nc1cc(-n2ncc3cc(C#N)cnc32)ncc1-c1cn(CCCN)nn1
8.22
